Each record here notes measured ΔTm.
Sequence of the target: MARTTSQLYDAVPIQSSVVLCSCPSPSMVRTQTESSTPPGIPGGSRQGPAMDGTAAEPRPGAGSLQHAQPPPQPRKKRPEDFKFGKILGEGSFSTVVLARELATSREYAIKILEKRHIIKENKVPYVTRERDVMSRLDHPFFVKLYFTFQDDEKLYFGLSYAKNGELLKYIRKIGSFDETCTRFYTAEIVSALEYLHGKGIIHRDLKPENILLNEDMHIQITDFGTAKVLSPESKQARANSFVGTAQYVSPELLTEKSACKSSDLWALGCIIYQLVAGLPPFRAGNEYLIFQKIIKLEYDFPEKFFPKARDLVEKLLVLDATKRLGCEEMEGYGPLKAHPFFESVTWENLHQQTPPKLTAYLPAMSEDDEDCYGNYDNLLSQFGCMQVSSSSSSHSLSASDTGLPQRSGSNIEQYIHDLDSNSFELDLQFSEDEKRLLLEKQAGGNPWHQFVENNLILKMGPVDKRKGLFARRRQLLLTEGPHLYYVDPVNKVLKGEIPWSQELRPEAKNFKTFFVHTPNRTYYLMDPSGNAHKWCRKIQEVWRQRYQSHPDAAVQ
# output: bare number, implied unit °C

Field: example entries. Status: answers known.
INSERT INTO assay_data (compound, value_type, measure_unit, observed_result) VALUES
  ('Nc1cccc(-c2cc3c(Oc4cccc(O)c4)ncnc3[nH]2)c1', 'ΔTm', '°C', -0.1),
  ('CN(C)S(=O)(=O)c1ccc2c(c1)/C(=C/c1cc3c([nH]1)CCCC3)C(=O)N2', 'ΔTm', '°C', 0.4),
  ('COc1cc2ncnc(Nc3cccc(O)c3)c2cc1OC', 'ΔTm', '°C', 0),
  ('NC1=NC(=O)/C(=C2\CCNC(=O)c3[nH]c(Br)cc32)N1 [HYMENIALDISINE]', 'ΔTm', '°C', -0.2),
  ('Cc1cc(Nc2nc(-c3ccccc3)nc3ccccc23)n[nH]1', 'ΔTm', '°C', -0.4),
  ('C=CNC#N', 'ΔTm', '°C', -0.1),
  ('CC(C)(C)c1nc2c3ccc(F)cc3c3c(=O)[nH]ccc3c2[nH]1', 'ΔTm', '°C', -1.3),
  ('NCCNc1ncc(C(N)=O)c(Nc2cccc(C(F)(F)F)c2)n1', 'ΔTm', '°C', 5.5);

Using the record for CCOc1ccc(/C=C2/SC(=O)N(CCN)C2=O)cc1 [HIAZOLIDINEDIONE1] , report its ΔTm.
-0.3

Using the record for `O=C1Nc2ccc(S(=O)(=O)O)cc2/C1=C1/Nc2ccccc2/C1=N\O` , report its ΔTm.
0.7

Using the record for `O=C1C(Cl)=C(N2C(=O)CCC2=O)C(=O)c2ccccc21` , report its ΔTm.
-1.9

---

What follows is a record of ΔTm for Serine/threonine-protein kinase Nek2 (Homo sapiens) (UniProt P51955).
# output: bare number, implied unit °C

INSERT INTO results (compound, value_type, measure_unit, observed_result) VALUES
  ('CSc1nc(-c2ccc(F)cc2)c(-c2ccnc(NC(C)c3ccccc3)c2)[nH]1 (racemic)', 'ΔTm', '°C', 0.9);

Record lookup: for Serine/threonine-protein kinase Nek2 (Homo sapiens) (UniProt P51955), what ΔTm belongs to `Cn1cc(C2=C(c3cn(CCCN)c4ccccc34)C(=O)NC2=O)c2ccccc21` ?
0.9

Record lookup: for Serine/threonine-protein kinase Nek2 (Homo sapiens) (UniProt P51955), what ΔTm belongs to `O=S(=O)(c1cccc2c(Cl)cccc12)N1CCCNCC1` ?
0.9

Source of measurements: ChEMBL document CHEMBL1145498
